system-under-test: T1, recombinant purified human RGM A (R&D Systems Cat#2459-RM) (human) (UniProt Q96B86)
T1 sequence: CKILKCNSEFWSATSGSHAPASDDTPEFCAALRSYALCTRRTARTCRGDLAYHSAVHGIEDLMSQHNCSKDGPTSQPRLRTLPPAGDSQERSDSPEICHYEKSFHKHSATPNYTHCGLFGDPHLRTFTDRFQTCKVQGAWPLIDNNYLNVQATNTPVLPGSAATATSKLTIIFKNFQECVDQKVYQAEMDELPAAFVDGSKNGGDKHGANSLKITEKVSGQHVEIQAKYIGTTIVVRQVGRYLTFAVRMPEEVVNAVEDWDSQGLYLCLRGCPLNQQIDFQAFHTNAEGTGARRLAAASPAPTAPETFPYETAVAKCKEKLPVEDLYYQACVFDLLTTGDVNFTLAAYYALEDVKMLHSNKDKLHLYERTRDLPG
assay-remarks: competition ELISA on coated hRGMA; competitor: biotinylated chimeric 5F9
Listed below: IC50 values for each entry.

Known IC50 results, listed for orientation:
binder="h5F9.26 (antibody, human IgG1, V domains shown) VH: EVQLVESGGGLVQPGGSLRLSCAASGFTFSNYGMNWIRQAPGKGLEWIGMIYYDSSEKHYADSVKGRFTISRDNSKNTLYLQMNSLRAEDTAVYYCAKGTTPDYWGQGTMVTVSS VL: DVVLTQSPLSLPVTLGQPASISCRSSQSLEYSDGYTFLEWYLQKPGQSPQLLIYEVSNRFSGVPDRFSGSGSGTDFTLKISRVEAEDVGVYYCFQATHDPLTFGQGTKLEIKR" result="> 2 µg/mL"
binder="h5F9.2 (antibody, human IgG1, V domains shown) VH: EVQLVESGGGVVQPGRSLRLSCAASGFTFSNYGMNWIRQAPGKGLEWIGMIYYDSSEKHYADSVKGRFTISRDNSKNTLYLQMNSLRAEDTAVYYCAKGTTPDYWGQGTMVTVSS VL: DIVMTQTPLSLSVTPGQPASISCRSSQSLEYSDGYTFLEWYLQKPGQSPQLLIYEVSNRFSGVPDRFSGSGSGTDFTLKISRVEAEDVGVYYCFQATHDPLTFGQGTKLEIKR" result="> 10 µg/mL"

Continue with the next binder.
Any idea what IC50 was measured for h5F9.9 (antibody, human IgG1, V domains shown) VH: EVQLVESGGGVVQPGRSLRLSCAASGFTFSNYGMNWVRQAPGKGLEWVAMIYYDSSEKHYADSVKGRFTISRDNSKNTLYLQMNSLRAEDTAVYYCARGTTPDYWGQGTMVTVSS VL: DVVMTQSPLSLPVTLGQPASISCRSSQSLEYSDGYTFLEWYLQKPGQSPQLLIYEVSNRFSGVPDRFSGSGSGTDFTLKISRVEAEDVGVYYCFQATHDPLTFGQGTKLEIKR ? > 10 µg/mL
